Retained binding to protein A values by entry
# Assayed system: T1, protein A (UniProt P38507 37-477)
# T1 construct: also called Protein A superantigen
# Experiment summary: Heat/Cool phage ELISA: phage-displayed scFv, 80 C 10 min then 4 C 10 min, captured on coated protein A; signal as % of untreated sample
# Description: The aggregation-resistance of clones was analyzed by measuring retention of signal after heat incubation in a phage ELISA format (McCafferty et al., 1990; Jespers et al., 2004). […] After three washes with PBS, bound phage particles were detected using an Extravidin-HRP conjugate (Sigma) and 3,3′,5,5′-tetramethylbenzidine (TMB) substrate. Absorbance was calculated by subtracting measurements at 450 and 650 nm. […]
Quantity name: Retained binding to protein A (%)

{"Binder": "scFv DP47 VH A33D - linker - common VL (scFv, name in Kabat numbering, also called A33D (scFv)) scFv: QVQLLESGGGLVQPGGSLRLSCAASGFTFSSYDMSWVRQAPGKGLEWVSAISGSGGSTYYADSVKGRFTISRDNSKNTLYLQMNSLRAEDTAVYYCAKSYGAFDYWGQGTLVTVSSGGGGSGGGGSGGGGSTDIQMTQSPSSLSASVGDRVTITCRASQSISSYLNWYQQKPGKAPKLLIYAYSDLQSGVPSGFSGSGSGTDFTLTISSLQPEDFATYYCQQLMTHPTTFGQGTKVEIKR", "Unit descriptor": "%", "Observed value": 22}
{"Binder": "scFv DP47 VH S35G - linker - common VL (scFv, name in Kabat numbering, also called S35G (scFv)) scFv: QVQLLESGGGLVQPGGSLRLSCAASGFTFSSYAMGWVRQAPGKGLEWVSAISGSGGSTYYADSVKGRFTISRDNSKNTLYLQMNSLRAEDTAVYYCAKSYGAFDYWGQGTLVTVSSGGGGSGGGGSGGGGSTDIQMTQSPSSLSASVGDRVTITCRASQSISSYLNWYQQKPGKAPKLLIYAYSDLQSGVPSGFSGSGSGTDFTLTISSLQPEDFATYYCQQLMTHPTTFGQGTKVEIKR", "Unit descriptor": "%", "Observed value": 5}
{"Binder": "scFv DP47 VH Y32E - linker - common VL (scFv, also called Y32E (scFv)) scFv: QVQLLESGGGLVQPGGSLRLSCAASGFTFSSEAMSWVRQAPGKGLEWVSAISGSGGSTYYADSVKGRFTISRDNSKNTLYLQMNSLRAEDTAVYYCAKSYGAFDYWGQGTLVTVSSGGGGSGGGGSGGGGSTDIQMTQSPSSLSASVGDRVTITCRASQSISSYLNWYQQKPGKAPKLLIYAYSDLQSGVPSGFSGSGSGTDFTLTISSLQPEDFATYYCQQLMTHPTTFGQGTKVEIKR", "Unit descriptor": "%", "Observed value": 27}
{"Binder": "scFv DP47 VH S31D - linker - common VL (scFv, also called S31D (scFv)) scFv: QVQLLESGGGLVQPGGSLRLSCAASGFTFSDYAMSWVRQAPGKGLEWVSAISGSGGSTYYADSVKGRFTISRDNSKNTLYLQMNSLRAEDTAVYYCAKSYGAFDYWGQGTLVTVSSGGGGSGGGGSGGGGSTDIQMTQSPSSLSASVGDRVTITCRASQSISSYLNWYQQKPGKAPKLLIYAYSDLQSGVPSGFSGSGSGTDFTLTISSLQPEDFATYYCQQLMTHPTTFGQGTKVEIKR", "Unit descriptor": "%", "Observed value": 29}
